- System: M. tuberculosis H37Rv growth inhibition with meropenem
- Test: dose response, H37Rv, with and without meropenem (AID 434987);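 further: growth over 7 days at 37 °C before Alamar Blue read on day 9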
- Test conditions: M. tuberculosis H37Rv growth inhibition; measured here: IC50 without meropenem
pIC50: −log10 of the molar value.
For each record, write down the corresponding pIC50.

# Item smiles, pIC50
rows = [
    ("CCc1ccc(N2C(=O)c3sc4nnc(-c5ccccc5)c(=O)n4c3C2=O)cc1", "< 4.00"),
    ("COc1cc(NC(=O)c2ccc(CNc3c(N4CCCC4)c(=O)c3=O)cc2)cc(OC)c1OC", "< 4.00"),
    ("CCCC(=O)N1CCN(c2ccc(NC(=S)NC(=O)CC)cc2)CC1", "< 4.00"),
]

Count: 3. Required value per item: pIC50.
1. CCOc1cc(N2CCOCC2)c(OCC)cc1NC(=O)c1cc(C)cc(C)c1
2. CN(C)S(=O)(=O)n1cc(/C=C(\NC(=O)c2ccccc2)C(=O)NCCN2CCOCC2)c2ccccc21
3. CCOC(=O)c1nn(-c2ccc(F)cc2)c2nc(Nc3ccccc3)cc(=O)n12

# output
1: < 4.00; 2: < 4.00; 3: < 4.00

* * *

- System: M. tuberculosis H37Rv growth inhibition with meropenem
- Test: dose response, H37Rv, with and without meropenem (AID 434987);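 further: growth over 7 days at 37 °C before Alamar Blue read on day 9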
- Test conditions: M. tuberculosis H37Rv growth inhibition; measured here: IC50 without meropenem
pIC50: −log10 of the molar value.
For each record, write down the corresponding pIC50.

Count: 4. Required value per item: pIC50.
1. O=C1S/C(=C\C=C\c2ccco2)C(=O)N1c1ccccc1
2. c1ccc(-c2cc3ccccc3[nH]2)cc1
3. CCCC(C)NC(=O)c1ccccc1SC (configuration not stated)
4. O=C(CCC(=O)Nc1ccccc1)NNC(=O)c1ccco1

# output
1. 4.36
2. < 4.00
3. 4.23
4. < 4.00

* * *

- System: M. tuberculosis H37Rv growth inhibition with meropenem
- Test: dose response, H37Rv, with and without meropenem (AID 434987);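 further: growth over 7 days at 37 °C before Alamar Blue read on day 9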
- Test conditions: measured here: IC90 with meropenem
For each record, write down the corresponding IC90.

Some entries whose results are on file:
# Compound, IC90
data = [
    ("COC(=O)c1c(NC(=O)C2c3ccccc3Oc3ccccc32)sc(C)c1C", "> 100 µM"),
    ("Cc1c(-c2ccccc2)sc(Br)c1C(=O)N1CCOCC1", "> 100 µM"),
    ("CN(C)c1ccc(S(=O)(=O)NCC(=O)OCC(=O)Nc2cccc(Cl)c2)cc1[N+](=O)[O-]", "> 100 µM"),
    ("Cc1ccc(C)c(N2CCN(CC3CCCCC3)CC2)c1", "52.4 µM"),
    ("Cc1cc(C)c2c(N)c(S(=O)c3ccc(C(C)(C)C)cc3)sc2n1 (centres undefined)", "> 100 µM"),
    ("CC1CC1C(=O)Nc1nc(-c2cccs2)c(-c2cccs2)s1 (centres undefined)", "> 100 µM"),
    ("Cc1nnc(SCc2ccc(C(=O)Nc3cc(Cl)ccc3C)cc2)s1", "> 100 µM"),
    ("CCCCCn1c(=O)c(C(=O)Nc2cnccn2)c(O)c2ccccc21", "13.8 µM"),
]

Count: 8. Required value per item: IC90.
1. COC(=O)c1cc(OC)c(OC)cc1NC(=S)N1CCN(C)CC1
2. Cc1nn(-c2ccccc2)c(N2CCCC2)c1/C=C1\N=C(c2ccc(F)cc2)OC1=O
3. CCCc1cc(C(=O)Nc2ccc(C(C)=O)cc2)no1
4. CC(=O)COc1ccc2c3c(c(=O)oc2c1C)CCCCC3
5. COc1ccc(OC)c(NC(=O)c2ccccc2SC)c1
6. COc1ccccc1C(=O)Nc1ccc2c3c(cccc13)CC2
7. Cc1nn(C)c(C(=O)NC(=S)Nc2ccccc2Br)c1Cl
8. Cc1cn([C@@H](CCCCNC(=O)OC(C)(C)C)C(=O)NCCCCCCCCCCC(=O)N2CCN(C(=O)OC(C)(C)C)CC2)nn1

# output
> 100 µM
22.9 µM
48.8 µM
> 100 µM
> 100 µM
> 100 µM
> 100 µM
> 100 µM

Count: 5. Required value per item: IC90.
1. CCOC(=O)c1nc(N2CCN(C(=O)OCC)CC2)c2c3c(sc2n1)CCCC3
2. CC1(C)CC(=O)c2cc(C(=O)NCc3ccco3)c(=O)n(-c3ccccc3)c2C1
3. N#Cc1ccc(NCC(=O)Nc2ccc(S(=O)(=O)N3CCCCC3)cc2)cc1
4. Cc1noc(/C=C/Nc2ccc(F)cc2F)c1[N+](=O)[O-]
5. Cc1ccc(CSc2nccc(-c3c(C)nc4ccccn34)n2)cc1

# output
40.9 µM
> 100 µM
> 100 µM
> 100 µM
> 100 µM

Count: 3. Required value per item: IC90.
1. O=S1(=O)CCO[C@H]2Cc3ccccc3[C@H]2N1Cc1ccccc1
2. O=C(O)CCC/C=C\C[C@@H]1[C@@H](/C=C/[C@@H](O)COc2cccc(Cl)c2)[C@H](O)C[C@@H]1O
3. COC(=O)c1c(C)n(-c2ccccc2)c2ccc(O)cc12

# output
1: > 100 µM; 2: > 100 µM; 3: > 100 µM
